Reported EC50 hGIPR 100% hP (CreLuc) values for the following binders.
Target: T1, human GIP receptor (human, UniProt P48546 22-466)
T1 sequence (looked up): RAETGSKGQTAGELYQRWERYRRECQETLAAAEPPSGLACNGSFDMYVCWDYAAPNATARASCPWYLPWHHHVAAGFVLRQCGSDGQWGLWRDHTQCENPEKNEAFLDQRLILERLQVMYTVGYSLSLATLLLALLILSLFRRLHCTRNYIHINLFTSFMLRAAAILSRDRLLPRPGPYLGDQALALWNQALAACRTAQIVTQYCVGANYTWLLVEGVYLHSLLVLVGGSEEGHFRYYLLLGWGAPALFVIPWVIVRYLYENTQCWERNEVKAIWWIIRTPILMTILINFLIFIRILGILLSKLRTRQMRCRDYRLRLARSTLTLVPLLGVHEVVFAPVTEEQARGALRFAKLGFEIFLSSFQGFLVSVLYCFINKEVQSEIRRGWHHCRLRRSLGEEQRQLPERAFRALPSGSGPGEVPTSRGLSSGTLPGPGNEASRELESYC
Test: cell-based or functional assay
Starred links: 1 amine or outer side, 2 acyl side, 3 side chain; linkers in the order of their positions; H or OH if unused. Non-standard residues stand in square brackets, D forms with d. Groups on a side chain read outwards from the residue. No end group written: not given here. *: point of attachment. C20 diacid = O=C(O)CCCCCCCCCCCCCCCCCCC(=O)*; C18 diacid = O=C(O)CCCCCCCCCCCCCCCCC(=O)*; γGlu = O=C(O)[C@H](CCC(=O)[*:2])N[*:1]; Aib = CC(C)(N)C(=O)O
Give your result in nM as a bare value.

Example entries begin here.
{"binder": "Y[Aib]EGTFTSDYSI[Aib]LEKQAQ[Aib]AFVEWLIK([γGlu-γGlu-γGlu-γGlu-C18 diacid])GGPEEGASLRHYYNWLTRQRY-NH2 (also: TFA salt) [Compound 272]", "result_value": 3.01}
{"binder": "Y[Aib]EGTFTSDYSI[Aib]LEKQAQ[Aib]AFVQWLIK([Glu-Glu-Glu-Glu-Glu-Glu-C18 diacid])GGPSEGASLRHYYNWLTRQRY-NH2 (also: TFA salt) [Compound 264]", "result_value": 1.82}

Now consider the entry below.
q: Specify EC50 hGIPR 100% hP (CreLuc) for Y[Aib]EGTFTSDYSI[Aib]LEKQAE[Aib]AFVEWLIK([γGlu-γGlu-γGlu-γGlu-C20 diacid])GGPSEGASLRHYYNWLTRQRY-NH2 (also: TFA salt) [Compound 280] and stop.
a: 2.44
